# Test system: NCI-H1568 (Lung Adenocarcinoma)
# protocol notes: combination Emax (second highest fraction inhibited in the dose matrix, 72 h); higher = more inhibition; extreme values may be limits of the assay
Outcome label depends on combination Emax relative to 0.4: at/above gives t, below gives f.

| compound | discrete label |
| --- | --- |
| NC1(C(=O)N[C@@H](CCO)c2ccc(Cl)cc2)CCN(c2ncnc3[nH]ccc23)CC1 [Capivasertib] + CC(=O)c1c(C)c2cnc(Nc3ccc(N4CCNCC4)cn3)nc2n(C2CCCC2)c1=O [Palbociclib] (first compound max 10 µM, 7x7, partner max 10 µM) | f |
| CN(CCO)CC[C@H](CSc1ccccc1)Nc1ccc(S(=O)(=O)NC(=O)c2ccc(N3CCC([C@@H](O)c4ccccc4-c4ccc(Cl)cc4)CC3)cc2)cc1S(=O)(=O)C(F)(F)F [AZD4320] + C1CN(CCC1(C(=O)N[C@@H](CCO)C2=CC=C(C=C2)Cl)N)C3=NC=NC4=C3C=CN4 [Capivasertib] (first compound max 1 µM, 7x7, partner max 3 µM) | f |
| COc1nnc2ccc(N3CCC(c4ccc(OCCN5CCN(C)C(=O)[C@H]5C)cc4)CC3)nn12 [AZD5153] + C=CCn1c(=O)c2cnc(Nc3ccc(N4CCN(C)CC4)cc3)nc2n1-c1cccc(C(C)(C)O)n1 [AZD1775] (first compound max 1 µM, partner max 1 µM) | t |
| CN(CCO)CC[C@H](CSc1ccccc1)Nc1ccc(S(=O)(=O)NC(=O)c2ccc(N3CCC([C@@H](O)c4ccccc4-c4ccc(Cl)cc4)CC3)cc2)cc1S(=O)(=O)C(F)(F)F [AZD4320] + Cc1cc2ncnn2cc1Nc1ncc2c(n1)n(C1CCOCC1)c(=O)n2C [AZD7648] (first compound max 1 µM, 7x7, partner max 10 µM) | f |
| CC1(C)CCC(CN2CCN(c3ccc(C(=O)NS(=O)(=O)c4ccc(NCC5CCOCC5)c([N+](=O)[O-])c4)c(Oc4cnc5[nH]ccc5c4)c3)CC2)=C(c2ccc(Cl)cc2)C1 [Venetoclax] + CCN(CCO)CCCOc1ccc2c(Nc3cc(CC(=O)Nc4cccc(F)c4)[nH]n3)ncnc2c1 [AZD2811] (first compound max 1 µM, 7x7, partner max 1 µM) | f |

Exam item: Reported combination Emax at or above 0.4? CC1(C)CCC(CN2CCN(c3ccc(C(=O)NS(=O)(=O)c4ccc(NCC5CCOCC5)c([N+](=O)[O-])c4)c(Oc4cnc5[nH]ccc5c4)c3)CC2)=C(c2ccc(Cl)cc2)C1 [Venetoclax] + C[C@@H](Nc1cc(F)cc(F)c1)c1cc(C(=O)N(C)C)cc2c(=O)cc(N3CCOCC3)oc12 [AZD8186] (first compound max 1 µM, 7x7, partner max 3 µM)
Marked response: f

Exam item: Please give the result for CN(C)CCCOc1ccc(-c2ccc3ncc4c(c3c2)n(C2CCOCC2)c(=O)n4C)cn1 [AZD0156] + O=C(c1cc(Cc2n[nH]c(=O)c3ccccc23)ccc1F)N1CCN(C(=O)C2CC2)CC1 [Olaparib] (first compound max 3 µM, partner max 3 µM) too.
Marked response: f

Exam item: Another compound to check: Cc1cc2ncnn2cc1Nc1ncc2c(n1)n(C1CCOCC1)c(=O)n2C [AZD7648] + C=CCn1c(=O)c2cnc(Nc3ccc(N4CCN(C)CC4)cc3)nc2n1-c1cccc(C(C)(C)O)n1 [AZD1775] (first compound max 10 µM, partner max 1 µM)
Marked response: t

Exam item: Also need Cn1cnc2c(F)c(Nc3ccc(Br)cc3Cl)c(C(=O)NOCCO)cc21 [Selumetinib] + CC(C)n1c(=O)n(C)c2cnc3cc(F)c(-c4ccc(OCCCN5CCCCC5)nc4)cc3c21 [AZD1390] (first compound max 10 µM, 7x7, partner max 0.3 µM) , thanks.
Marked response: f
